Readings of inhibition for the listed molecules
# measuredOn: 5-hydroxytryptamine receptor 1B (Homo sapiens)
# assayConditions: Compound concentration 10 µM
# Description: PDSP Primary Binding target: HTR1B - Compounds are tested at 10 uM concentration, plate are incubated at room temperature in the dark for 90 minutes. Reaction are stopped by vacuum filtration onto 0.3% polyethyleneimine soaked filter mats using Filtermate harvester. Scintilation cocktail is then melted onto microwave-dried filters on a hot plate and the radio activity is counted in Microbia counter.
Response body: numeric value in %, unit text excluded.

Worked cases, answers included:
CNc1nc(NCc2ccc(NS(C)(=O)=O)cc2Cl)cc(-c2ccccn2)n1; 3.99
Cc1c(P(=S)(c2ccccc2)c2ccccc2)n2ccccc2[n+]1C/C=C/c1ccccc1; 45.4

// inhibition value for CC1CCN(CC[C@H]2CCCN2S(=O)(=O)c2cccc(O)c2)CC1 : 78.2

---

# measuredOn: 5-hydroxytryptamine receptor 2C (Homo sapiens) (UniProt P28335)
# Sequence (P28335 whole entry): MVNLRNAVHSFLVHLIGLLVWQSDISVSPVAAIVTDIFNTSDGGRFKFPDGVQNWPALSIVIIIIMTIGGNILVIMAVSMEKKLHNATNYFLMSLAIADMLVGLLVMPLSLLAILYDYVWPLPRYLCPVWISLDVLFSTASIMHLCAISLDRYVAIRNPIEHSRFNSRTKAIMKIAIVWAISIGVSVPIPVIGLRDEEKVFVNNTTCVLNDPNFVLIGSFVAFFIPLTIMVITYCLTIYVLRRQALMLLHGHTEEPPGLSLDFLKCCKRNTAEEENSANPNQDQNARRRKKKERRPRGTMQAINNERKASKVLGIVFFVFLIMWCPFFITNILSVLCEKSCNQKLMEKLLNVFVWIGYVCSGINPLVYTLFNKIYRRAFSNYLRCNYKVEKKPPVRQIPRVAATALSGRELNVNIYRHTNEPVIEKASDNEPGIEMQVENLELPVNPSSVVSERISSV
# assayConditions: Compound concentration 10 µM
# Description: PDSP Primary Binding target: HTR2C - Compounds are tested at 10 uM concentration, plate are incubated at room temperature in the dark for 90 minutes. Reaction are stopped by vacuum filtration onto 0.3% polyethyleneimine soaked filter mats using Filtermate harvester. Scintilation cocktail is then melted onto microwave-dried filters on a hot plate and the radio activity is counted in Microbia counter.
measure: inhibition (%)
Response body: numeric value in %, unit text excluded.

Worked cases, answers included:
N#Cc1c[nH]c2c(C(=O)N3CCN(CCc4ccc(F)cc4)CC3)cccc12; 58.7
OC[C@H]1O[C@@H](n2cnc3c(NC4CCCC4)ncnc32)[C@H](O)[C@@H]1O; -3.43
CCCCN(CC)c1nc(C)nc2c1c(C)cn2-c1c(C)cc(C)cc1C; -7.17
CCC[C@H](Oc1cc(C)c(-n2cc(C(F)(F)F)cn2)c(C)c1)c1ccc(C(=O)NCCC(=O)O)cc1; -0.8
N#Cc1cccc(C(=O)Nc2cc(-c3ccccc3)nn2-c2ccccc2)c1; 7.87

// inhibition value for NC[C@H](O)c1ccc(O)c(O)c1 : -4.42

// inhibition value for Cc1cn2cc(CC(=O)N3CCC4(CC3)CN(Cc3ccc(-n5nccn5)cc3Cl)C4)nc2s1 : -3.75

// inhibition value for N#Cc1c(N)nc(SCc2csc(-c3ccc(Cl)cc3)n2)c(C#N)c1-c1ccc(OCCO)cc1 : 39.9
